system: Solanum tuberosum; experiment: Inhibition of potato 5-LOX assessed as decrease in leukotriene production using arachidonic acid as substrate at 1 uM by enzyme immunoassay
TEST READOUT: inhibition (%)
Your answer should be a plain number; it is taken to be in %.

Some compounds with recorded inhibition:
Report inhibition for "CC(C)c1ccc2occ(/C=C3/C(=O)N(c4c(Cl)cccc4Cl)c4ccccc43)c(=O)c2c1" tested on Solanum tuberosum. 81

Report inhibition for "CC1=NN(c2cccc(Cl)c2)C(=O)/C1=C/c1coc2c([N+](=O)[O-])cc(F)cc2c1=O" tested on Solanum tuberosum. 46.5

Report inhibition for "O=C1/C(=C/c2coc3ccccc3c2=O)c2ccccc2N1c1c(Cl)cccc1Cl" tested on Solanum tuberosum. 15.5

Next, consider the following compound.
Report inhibition for "O=C1Nc2ccccc2/C1=C/c1coc2ccc(Br)cc2c1=O" tested on Solanum tuberosum. 77.6
